Catalogue of MIC readings, one per entry.
tested on: S. typhimurium 14028A; assay: Minimum inhibitory concentration, agar dilution; type: cell-based; details: Salmonella enterica; S. typhimurium 14028A; Muller-Hinton agar, 10^7 CFU per ml, 37° C., 20 hours; read-out: Minimum Inhibitory Concentration
# value in µg/mL; strip the unit string

Solved entries (count: 3):
COMPOUND	TEST_RESULT
C[n+]1cc(C(=O)O)c(N)nc1SCC1=C(C(=O)[O-])N2C(=O)C(NC(=O)/C(=N\OC(C(=O)O)c3ccc(O)c(O)c3)c3csc(N)n3)[C@H]2SC1 (stereo partly shown)	0.031
C[n+]1ccc(N)nc1SCC1=C(C(=O)[O-])N2C(=O)C(NC(=O)/C(=N\OC(C(=O)O)c3ccc(O)c(O)c3)c3csc(N)n3)[C@H]2SC1 (stereo partly shown)	0.031
Cn1cc[n+]2c(SCC3=C(C(=O)[O-])N4C(=O)C(NC(=O)C(=NOC(C(=O)O)c5ccc(O)c(O)c5)c5csc(N)n5)C4SC3)nc(N)cc12 (stereo not shown)	0.016

Q) Request the reported MIC associated with Nc1cc[n+](N)c(SCC2=C(C(=O)[O-])N3C(=O)C(NC(=O)C(=NOC(C(=O)O)c4ccc(O)c(O)c4)c4csc(N)n4)C3SC2)n1 (stereo not shown)
A) 0.031
